Exercise: state measured T/C for each of the compounds provided.
Test system: CD2F1 mice, L1210 leukemia ip, survival T/C
protocol: NCI In Vivo Anticancer Drug Screen. Data for tumor model L1210 Leukemia (intraperitoneal) in CD2F1 (CDF1) mice
condition_summary: endpoint: mean survival time; dose: 400.0 mg/kg/injection; schedule: Q04DX003 (ip); vehicle: saline with Tween-80; higher = longer survival
Inconclusive results and toxic doses are left out.

Known T/C results, listed for orientation:
- Brc1ccc(-c2csc(Nc3nc(-c4ccc(Br)cc4)cs3)n2)cc1: 92 % of control
- CCOC(=O)c1cnc(SCc2ccccc2)nc1N: 97 % of control

Parameter requested: T/C. Apply to each item below.
1. CC(C)(CO)CBr
2. CCCC(=O)Nc1ccc([N+](=O)[O-])cc1OC

["95 % of control", "104 % of control"]

----------
Tested on: CD2F1 mice, L1210 leukemia ip, survival T/C
protocol: NCI In Vivo Anticancer Drug Screen. Data for tumor model L1210 Leukemia (intraperitoneal) in CD2F1 (CDF1) mice
condition_summary: endpoint: mean survival time; dose: 25.0 mg/kg/injection; schedule: Q04DX003 (ip); vehicle: saline with Tween-80; higher = longer survival
Toxic doses and inconclusive results are not listed.
For each entry below, report its T/C value.

* [Cl][Pd][Cl] | 103 % of control

Could you report T/C for every entry in the following list?
1. Brc1ccc([I+]c2ccc(Br)cc2)cc1
2. O=S1(=O)CCC2CCCCC2C1 (stereo unspecified)

["95 % of control", "100 % of control"]

The following compounds each have a reported value; give each one's T/C.
1. Clc1ccc(C[P+](c2ccccc2)(c2ccccc2)c2ccccc2)c(Cl)c1
2. O=C(/C=C/c1ccccc1O)/C=C/c1ccccc1O
3. C=CCOCC(O)C[As](=O)(O)c1ccc(OC)cc1 (stereo unspecified)
4. CCCC1CC[N-]CC1.CCCC1CC[N-]CC1.[Cl][Pt+2]([Cl])([Cl])[Cl]
5. Cc1cc(CCl)c(C)cc1CCl
6. CC(=O)CC(C)=O.CC(=O)CC(C)=O.CC(=O)CC(C)=O.[Fe]

["93 % of control", "111 % of control", "98 % of control", "98 % of control", "87 % of control", "98 % of control"]

# map each compound to its T/C
1. CC(C)C(NC1=NCCO1)c1ccccc1 (stereo unspecified)
2. O=C1C=CC(=O)N1c1ccc(Cl)cc1Cl

["98 % of control", "100 % of control"]

----------
System: CD2F1 mice, L1210 leukemia ip, survival T/C
protocol: NCI In Vivo Anticancer Drug Screen. Data for tumor model L1210 Leukemia (intraperitoneal) in CD2F1 (CDF1) mice
condition_summary: endpoint: mean survival time; dose: 100.0 mg/kg/injection; schedule: Q04DX003 (ip); vehicle: acetone; higher = longer survival
Inconclusive results and toxic doses are left out.
Hi there, I'd appreciate the recorded T/C for every entry that follows.

# annotated cases, reported T/C shown
• NC(=S)N/N=C/c1ccccc1N = 103 % of control
• C/C(=C\Cl)COC(C)(C)C = 101 % of control
• COc1ccccc1-n1c(O)c(N=Nc2ccccc2)c(=O)n(-c2ccccc2)c1=S = 90 % of control

# return recorded T/C for entry Cc1ccccc1OS(=O)(=O)c1ccccc1
100 % of control
